system: MDA-MB-435; experiment: NCI tumour cell line growth inhibition, 48 h
Reported TGI by item:

Some entries whose results are on file:
- COMPOUND_STRING: "Cc1nnc(N)s/c1=N/O"
  TGI: "> 100 µM"
- COMPOUND_STRING: "O=C(NCc1ccc(Cl)c(Cl)c1)c1nc2ccccc2nc1NCc1ccc(Cl)c(Cl)c1"
  TGI: "> 100 µM"

We now examine a further compound.
Query: Report TGI for CC(C)c1nc(Cl)c(Cl)c(Cl)n1
Reply: 17.2 µM

* * *

test system: CAKI-1 renal; assay: NCI tumour cell line growth inhibition, 48 h; in the data active = GI50 below about 0.43 µM; inactive = the rest
Your answer must be one of the following: active, inactive

- MOLECULE: "COC1=C(C)C(=O)C2=C(C1=O)C1C3CC4=C(C(=O)C(OC)=C(C)C4=O)C(CNC(=O)C(C)=O)N3C(C#N)C(C2)N1C (configuration not stated)"
  LABEL_VALUE: "active"
- MOLECULE: "Cc1cc(N(CCCl)CCCl)ccc1/C=N\\NC(=O)c1cccnc1"
  LABEL_VALUE: "inactive"
- MOLECULE: "COc1cc(-c2nn(-c3cccc(NC(=O)c4cccc(C(F)(F)F)c4)c3)cc2-c2ccncc2)ccc1Cl"
  LABEL_VALUE: "inactive"
- MOLECULE: "OCCn1c(-c2ccncc2)c(-c2ccc(F)cc2)c2ncccc21"
  LABEL_VALUE: "inactive"
- MOLECULE: "Cc1c(N)nc(C2CC(=O)N2CC(N)C(N)=O)nc1C(=O)NC(C(=O)NC(C)C(O)C(C)C(=O)NC(C(=O)NCCc1nc(-c2nc(C(=O)NCCNCC(C)O)cs2)cs1)C(C)O)C(OC1OC(CO)C(O)C(O)C1OC1OC(CO)C(O)C(OC(N)=O)C1O)c1cnc[nH]1 (configuration not stated)"
  LABEL_VALUE: "active"
- MOLECULE: "O=C(c1ccccc1)c1ccc(N2C(=O)C3C4c5ccccc5C(/C=C/C(=O)c5ccccn5)(c5ccccc54)C3C2=O)cc1 (configuration not stated)"
  LABEL_VALUE: "inactive"

// switching to the query molecule
Query: # lookup: test call for ClCc1ccc(Cn2cnc3nc(Cl)nc(Cl)c32)cc1
Reply: inactive

* * *

Reported GI50 by item:
system: SNB-19 CNS; experiment: NCI tumour cell line growth inhibition, 48 h

Some entries whose results are on file:
- COMPOUND: "CC(C)=NO.CC(C)=NO.CC(C)=NO.CC(C)=NO.[Ti]"
  GI50: "> 100 µM"
- COMPOUND: "CC(=O)OC1CCC2(C)C(=CCC3C4CC(CN5CC5)C(=O)C4(C)CCC32)C1 (stereo unspecified)"
  GI50: "14.1 µM"
- COMPOUND: "Cc1cc(N(CCCl)CCCl)ccc1/C=N\\NC(=O)c1cccnc1"
  GI50: "> 100 µM"
- COMPOUND: "Oc1ccc(CCNc2nc3ccccc3c3[nH]c4ccccc4c23)cc1"
  GI50: "1.83 µM"
- COMPOUND: "COc1cc(-c2nn(-c3cccc(NC(=O)c4cccc(C(F)(F)F)c4)c3)cc2-c2ccncc2)ccc1Cl"
  GI50: "2.46 µM"
- COMPOUND: "c1csc(-c2[nH]nc3c2CCc2ccccc2-3)c1"
  GI50: "13.3 µM"
- COMPOUND: "Cc1cccc(Cc2cnc(NC(=O)CCCOc3ccc(Cl)cc3)s2)c1"
  GI50: "> 100 µM"
- COMPOUND: "COc1ccc(S(=O)(=O)NCCCNc2nccc(-c3c(-c4ccc(F)cc4)nc4sccn34)n2)cc1"
  GI50: "40.2 µM"

Query: Report GI50 for OCCn1c(-c2ccncc2)c(-c2ccc(F)cc2)c2ncccc21
Reply: > 25 µM

Query: Report GI50 for Cn1c(=O)c(-c2c(Cl)cccc2Cl)cc2cnc(Nc3ccc(N4CCOCC4)cc3)nc21
Reply: 0.561 µM

Query: Report GI50 for Cc1c(-c2ccc(N3CCc4cccc(C(=O)Nc5nc6ccccc6s5)c4C3)nc2C(=O)O)cnn1CC12CC3CC(CC(C3)C1)C2
Reply: 4.37 µM
